target: Aurora-2 (Homo sapiens, UniProt O14965); construct: autophosphorylation of Aurora-2 (residues 125-391); assay: Aurora-2 Enzymatic Assay (ELISA-based); format: biochemical; settings: phosphorylated Aurora-2 (residues 125-391), Histone H3 Ser-10 phosphorylation, averages of three independent measurements; read-out: Aurora-2 IC50 Enzyme
Sequence (O14965 125-391): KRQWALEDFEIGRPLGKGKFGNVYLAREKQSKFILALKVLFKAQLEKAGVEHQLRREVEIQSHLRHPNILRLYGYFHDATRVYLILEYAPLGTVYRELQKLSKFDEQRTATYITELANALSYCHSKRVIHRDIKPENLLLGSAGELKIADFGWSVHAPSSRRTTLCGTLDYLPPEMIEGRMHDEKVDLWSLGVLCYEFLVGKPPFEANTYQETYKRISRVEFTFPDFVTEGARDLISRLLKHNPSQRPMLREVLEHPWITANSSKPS
pIC50: −log10 of the molar value.
# pIC50 values compiled below
Measure: pIC50

- COc1ccc(-c2cnc3[nH]c(=O)n(Cc4ccccc4)c3n2)cc1C(N)=O: < 6.00
- COc1cc(-c2cnc3[nH]c(=O)n(Cc4cccs4)c3n2)cc(OC)c1OC: > 6.30
- COc1cc(-c2cnc3[nH]c(=O)n(Cc4ccccc4)c3n2)cc(OC)c1OC: > 6.30
- O=C(O)c1cccc(-c2cnc3[nH]c(=O)n(Cc4ccccc4)c3n2)c1: 6.00 to 6.30
- COc1cc(-c2cnc3[nH]c(=O)n(Cc4cccc(C)c4)c3n2)cc(OC)c1OC: 6.00 to 6.30
- O=c1[nH]c2ncc(-c3ccsc3)nc2n1Cc1ccccc1: < 6.00
- COc1cc(-c2cnc3[nH]c(=O)n(Cc4ccccn4)c3n2)cc(OC)c1OC: 6.00 to 6.30
- C[C@@H](c1ccccc1)n1c(=O)[nH]c2ncc(-c3cc4ccccc4[nH]3)nc21: < 6.00

----------
molecular target: Aurora-2 (Homo sapiens, UniProt O14965)
pIC50: −log10 of the molar value.
// reported pIC50 for each item listed
Measure: pIC50

* COc1cc(OC)cc(-c2cnc3[nH]c(=O)n(Cc4ccccc4)c3n2)c1 | < 6.00
* COc1cc(-c2cnc3[nH]c(=O)n(Cc4ccccc4Cl)c3n2)cc(OC)c1OC | > 6.30
* COc1cc(-c2cnc3[nH]c(=O)n(Cc4cccc(Cl)c4)c3n2)cc(OC)c1OC | > 6.30
* O=C(O)c1cc(-c2cnc3[nH]c(=O)n(Cc4ccccc4)c3n2)ccc1O | 6.00 to 6.30
